# Test system: HT-29
# method-notes: Chemosensitivity, 96 h continuous exposure, MTT assay
# Format: cell-based, human
# conditions: ratio of SI (MCF 10A), HT29
readout-type: Selectivity indices relative to MCF10A, Ratio + anion:no anion
Please give only the number in your answer, with no unit.

Ask | Selectivity indices relative to MCF10A, Ratio + anion:no anion lookup needed for O=P(O)(O)Oc1ccccc1.[Zn+2].[Zn+2].[Zn+2].c1ccc(-c2csc(NCCN(CCNc3nc(-c4ccccn4)cs3)CCNc3nc(-c4ccccn4)cs3)n2)nc1.c1ccc(-c2csc(NCCN(CCNc3nc(-c4ccccn4)cs3)CCNc3nc(-c4ccccn4)cs3)n2)nc1 [[L2Zn3(O3POPh)]4+] , thanks.
Reply | 0.144

Ask | Selectivity indices relative to MCF10A, Ratio + anion:no anion lookup needed for CC(=O)[O-].CC(=O)[O-].CC(=O)[O-].CC(=O)[O-].CC(=O)[O-].CC(=O)[O-].[Zn+2].[Zn+2].[Zn+2].c1ccc(-c2csc(NCCN(CCNc3nc(-c4ccccn4)cs3)CCNc3nc(-c4ccccn4)cs3)n2)nc1.c1ccc(-c2csc(NCCN(CCNc3nc(-c4ccccn4)cs3)CCNc3nc(-c4ccccn4)cs3)n2)nc1 [[L2Zn3]6+] , thanks.
Reply | 1

Ask | Selectivity indices relative to MCF10A, Ratio + anion:no anion lookup needed for O=P([O-])([O-])Oc1ccccc1.[Cu+2].[Cu+2].[Cu+2].c1ccc(-c2csc(NCCN(CCNc3nc(-c4ccccn4)cs3)CCNc3nc(-c4ccccn4)cs3)n2)nc1.c1ccc(-c2csc(NCCN(CCNc3nc(-c4ccccn4)cs3)CCNc3nc(-c4ccccn4)cs3)n2)nc1 [[L2Cu3(O3POPh)]4+] , thanks.
Reply | 0.328
